biological target: FAAH (Rattus norvegicus); construct: Preparation of Rat Brain Membranes Preparations (FAAH Enzyme Solution); from tissue; host or cells: rat cerebrum (brain membrane preparation); assay: Determination of FAAH inhibitory activity in rat (rat brain membrane preparations, [3H]-anandamide hydrolysis); assay type: biochemical; details: rat brain membrane preparations; 100 nM test substance; read-out: FAAH Inhibition, Inhibition Rate at 100 nM
Observable: inhibition at 0.1 µM (%)

- Molecule: "Cn1c(=O)n(C(=O)N2CCCC2)c2nc(-c3cccc(F)c3)ncc21 [Example 226]"
  Uom: "%"
  inhibition at 0.1 µM: 99
- Molecule: "Cn1c(=O)n(C(=O)N2CCCC2)c2cnc(Cc3ccccc3)nc21 [Example 253]"
  Uom: "%"
  inhibition at 0.1 µM: 100
- Molecule: "COc1cccc(-c2ncc3c(n2)n(C)c(=O)n3C(=O)N(C)C)c1 [Example 48]"
  Uom: "%"
  inhibition at 0.1 µM: 100

(I) COc1ccc(Cc2ncc3c(n2)n(C(=O)N2CCCC2)c(=O)n3C)cc1 [Example 287]
(II) CCN(C)C(=O)n1c(=O)n(C)c2cnc(CCc3ccccc3F)nc21 [compound 554]
Compare inhibition at 0.1 µM: is it lower for I or for II ? In your reply, give the label of the chosen option.
II

----------
Target: FAAH (Rattus norvegicus)
Construct: Preparation of Rat Brain Membranes Preparations (FAAH Enzyme Solution); from tissue; host or cells: rat cerebrum (brain membrane preparation)
Sequence (P97612 1-579): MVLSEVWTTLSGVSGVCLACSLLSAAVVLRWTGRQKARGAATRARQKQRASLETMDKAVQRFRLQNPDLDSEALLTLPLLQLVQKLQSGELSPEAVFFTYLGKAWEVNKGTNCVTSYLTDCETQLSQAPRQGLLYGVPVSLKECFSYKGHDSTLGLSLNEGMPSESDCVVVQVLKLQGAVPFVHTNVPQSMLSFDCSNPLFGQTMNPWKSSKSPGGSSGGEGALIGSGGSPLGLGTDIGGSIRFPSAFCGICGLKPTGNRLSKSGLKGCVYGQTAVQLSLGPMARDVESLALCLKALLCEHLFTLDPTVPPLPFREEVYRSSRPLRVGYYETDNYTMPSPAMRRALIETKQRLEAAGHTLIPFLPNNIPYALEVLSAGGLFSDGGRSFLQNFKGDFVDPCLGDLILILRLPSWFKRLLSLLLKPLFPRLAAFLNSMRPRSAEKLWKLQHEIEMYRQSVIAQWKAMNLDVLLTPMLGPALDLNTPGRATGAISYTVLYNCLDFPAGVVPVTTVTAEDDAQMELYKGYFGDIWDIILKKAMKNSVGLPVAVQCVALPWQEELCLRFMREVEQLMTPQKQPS
Test: Determination of FAAH inhibitory activity in rat (rat brain membrane preparations, [3H]-anandamide hydrolysis)
Assay type: biochemical
Conditions: rat brain membrane preparations; 100 nM test substance; read-out: FAAH Inhibition, Inhibition Rate at 100 nM
Observable: inhibition at 0.1 µM (%)

(A) Cn1c(=O)n(C(=O)N2CCCCC2)c2cnc(-c3ccccc3)nc21 [Example 24]
(B) Cn1c(=O)n(C(=O)N2CCCC2)c2nc(-c3ccc(F)nc3)ncc21 [Example 249]
Compare inhibition at 0.1 µM: is it lower for A or for B ? In your reply, give the label of the chosen option.
B

(1) Cn1c(=O)n(C(=O)N2CCCC2)c2cnc(-c3ccc(F)cc3)nc21 [Example 168]
(2) Cn1c(=O)n(C(=O)N2CCC2)c2nc(CCc3ccc(F)cc3)ncc21 [Example 587]
Compare inhibition at 0.1 µM: is it lower for 1 or for 2 ? In your reply, give the label of the chosen option.
2

(I) Cn1c(=O)n(C(=O)N2CCCC2)c2nc(/C=C/c3ccc(C(F)(F)F)cc3)ncc21 [Example 243]
(II) COc1cccc(-c2ncc3c(n2)n(C(=O)N(C)C)c(=O)n3C)c1 [Example 322]
Compare inhibition at 0.1 µM: is it lower for I or for II ? In your reply, give the label of the chosen option.
II

(1) COc1cccc(-c2ncc3c(n2)n(C)c(=O)n3C(=O)N2CCC(=Cc3ccc(Cl)cc3)CC2)c1 [Example 102]
(2) Cn1c(=O)n(C(=O)N2CCC2)c2cnc(COc3cccc(Cl)c3)nc21 [compound 407]
Between 1 and 2 , whose measured inhibition at 0.1 µM reads higher? In your reply, give the label of the chosen option.
1
